Data credit: patent US20080280890A1

tested on: Human neuroblastoma SKN-SH cells, resistant to doxorubicin; experiment: Chemoresistance: cancer cell viability (MTT) in presence or absence of doxorubicin; assay type: cell-based; conditions: compound 50 ug/mL; Dox. absent (−); MTT
READOUT TYPE: Mean OD (×10^−3), cancer cell viability

Past entries and their recorded results:
COMPOUND: CC1(C)CC(N2CCOCC2)CC(C)(C)N1O.Cl
ASSAY SYSTEM: Human neuroblastoma SKN-SH cells, resistant to doxorubicin
READOUT TYPE: Mean OD (×10^−3), cancer cell viability
RESULT: 640.25 ×10^−3
--
COMPOUND: CC1(C)CC(O)(c2ccc(F)cc2)CC(C)(C)N1O.Cl
ASSAY SYSTEM: Human neuroblastoma SKN-SH cells, resistant to doxorubicin
READOUT TYPE: Mean OD (×10^−3), cancer cell viability
RESULT: 1078.50 ×10^−3
--
COMPOUND: CC1(C)CC(Oc2nsnc2N2CCN(c3ccccc3)CC2)CC(C)(C)N1O.Cl.Cl
ASSAY SYSTEM: Human neuroblastoma SKN-SH cells, resistant to doxorubicin
READOUT TYPE: Mean OD (×10^−3), cancer cell viability
RESULT: 1333.75 ×10^−3
--
COMPOUND: COc1ccc(C2=C(c3cc(OC)c(OC)c(OC)c3)C(C)(C)N(O)C2(C)C)cc1C=O
ASSAY SYSTEM: Human neuroblastoma SKN-SH cells, resistant to doxorubicin
READOUT TYPE: Mean OD (×10^−3), cancer cell viability
RESULT: 79.00 ×10^−3
--
COMPOUND: CC(C)(C)c1cc(NC(=O)C2CC(C)(C)N(O)C(C)(C)C2)cc(C(C)(C)C)c1O.Cl
ASSAY SYSTEM: Human neuroblastoma SKN-SH cells, resistant to doxorubicin
READOUT TYPE: Mean OD (×10^−3), cancer cell viability
RESULT: 1328.00 ×10^−3
--
COMPOUND: CC1(C)CC(CO)C(C)(C)N1O.Cl (stereo not drawn)
ASSAY SYSTEM: Human neuroblastoma SKN-SH cells, resistant to doxorubicin
READOUT TYPE: Mean OD (×10^−3), cancer cell viability
RESULT: 1237.50 ×10^−3
--
COMPOUND: CC1(C)CC(NS(C)(=O)=O)CC(C)(C)N1O
ASSAY SYSTEM: Human neuroblastoma SKN-SH cells, resistant to doxorubicin
READOUT TYPE: Mean OD (×10^−3), cancer cell viability
RESULT: 456.00 ×10^−3
--
COMPOUND: CCCCC1(O)CC(C)(C)N(O)C(C)(C)C1.Cl
ASSAY SYSTEM: Human neuroblastoma SKN-SH cells, resistant to doxorubicin
READOUT TYPE: Mean OD (×10^−3), cancer cell viability
RESULT: 824.75 ×10^−3

Now, please, on to the next compound.
[Q] Requested read-out: Mean OD (×10^−3), cancer cell viability. Entry: "COc1cc(C2=CC(C)(C)N(O)C(C)(C)C2)cc(OC)c1OC.Cl"
[A] 1226.33 ×10^−3

----------
system: TNF-alpha; experiment: LPS induced TNF-alpha inhibition (whole blood / THP-1 cells, ELISA); format: cell-based, human; details: read-out: TNFalpha IC50
READOUT TYPE: pIC50
One number for each entry, as −log10 of the molar value.

[Q] Fill in: pIC50 of CC1(C)C=C(C(N)=O)C(C)(C)N1O [Compound 23] is ___
[A] 4.06

----------
Task for the reader: assign each of the following molecules its reported melting point.
Where a name gives a salt, the structure may show the parent alone.

Some solved entries appear below for comparison.
MOLECULE: Cc1c(C)c2c(c(C)c1O)CCC(C)(C(=O)NC1CC(C)(C)N(O)C(C)(C)C1)O2.Cl (stereo not drawn)
READOUT TYPE: melting point
RESULT: 174.9 °C (dec.)

MOLECULE: CC1(C)CC(O)(c2ccccc2)CC(C)(C)N1O.Cl
READOUT TYPE: melting point
RESULT: 201.7 °C (dec.)

MOLECULE: CC1(C)CC(Oc2nsnc2-c2ccccc2)CC(C)(C)N1O.Cl
READOUT TYPE: melting point
RESULT: 220.8 °C (dec.)

MOLECULE: COc1cc2c(cc1OC)CN(c1nsnc1OC1CC(C)(C)N(O)C(C)(C)C1)CC2.Cl
READOUT TYPE: melting point
RESULT: 166.9 °C (dec.)

Hi there! I need melting point for each item below, if you can.
1. CC1(C)CC(Oc2nc3ccc(F)cc3s2)CC(C)(C)N1O.Cl
2. CC1(C)CC(Oc2nsnc2N2CCN(C(=O)c3ccco3)CC2)CC(C)(C)N1O.Cl
3. CC1(C)CC(Oc2nsnc2C(=O)O)CC(C)(C)N1O.Cl
4. CC1(C)CC(NS(C)(=O)=O)CC(C)(C)N1O (as salt: salt)
5. CC1(C)CC(Nc2nc3ccccc3s2)CC(C)(C)N1O.Cl
6. CC1(C)c2ccc(Br)cc2C(C)(C)N1O.Cl
7. CC1(C)CC(O)C(C)(C)N1O (stereo not drawn) (as salt: salt)

[A]
1: 178 °C (dec.); 2: 198.1 °C (dec.); 3: 209.1 °C (dec.); 4: 178.3 °C (dec.); 5: 183 °C (dec.); 6: 214.1 °C; 7: 155.5 °C (dec.)

----------
Counter-ions that a name gives are not always drawn.
READOUT TYPE: melting point

Dear colleague, could you send me melting point for each of the items below? Thanks.
1. CC1(C)C=C(COc2ccccc2N2CCOCC2)C(C)(C)N1O.Cl
2. CC1(C)CC(OCc2ccccc2)CC(C)(C)N1O.Cl
3. CC1(C)CC(Oc2nsnc2N2CCSCC2)CC(C)(C)N1O.Cl

[A]
155.7 °C (dec.)
181.5 °C (dec.)
218 °C (dec.)

Could you report melting point for every entry in the following list?
1. CC1(C)CC(NC(=O)CCCCC2CCSS2)CC(C)(C)N1O (centres unmarked) (as salt: hydrochloride)
2. COc1cc(CNC2CC(C)(C)N(O)C(C)(C)C2)cc(OC)c1OC.Cl.Cl

[A]
164.7 °C (dec.)
181 °C

----------
test system: lipid peroxidation; assay: Lipid peroxidation inhibition (method of Ohkawa); type: biochemical; details: 1 uM
Cut-off 60% on % Lipid Peroxidation inhibition (at 1 uM), inclusive. At or above means condition met; below means condition not met.

MOLECULE: Cc1cc(O)c(O)cc1C(=O)NC1CC(C)(C)N(O)C(C)(C)C1.Cl
CLASSIFICATION: condition not met

[Q] Is % Lipid Peroxidation inhibition (at 1 uM) for "COC1CC(C)(C)N(O)C(C)(C)C1.Cl" at or above 60%?
[A] condition met

[Q] // inclusive: % Lipid Peroxidation inhibition (at 1 uM) at least 60%? input: CC1(C)CC(C(N)=O)C(C)(C)N1O (stereo not shown)
[A] condition not met

[Q] API: above_or_equal(metric=% Lipid Peroxidation inhibition (at 1 uM), cutoff=60%) for item "CC1(C)CC(Oc2nsnc2C#N)CC(C)(C)N1O"
[A] condition met

[Q] For this molecule, is measured % Lipid Peroxidation inhibition (at 1 uM) 60% or higher? "CC(C)(C)c1cc(NC(=O)C2CC(C)(C)N(O)C(C)(C)C2)cc(C(C)(C)C)c1O.Cl"
[A] condition met

[Q] Tell me whether % Lipid Peroxidation inhibition (at 1 uM) is at least 60% here: "CC1(C)C=C(CO)CC(C)(C)N1O.Cl"
[A] condition not met

[Q] Decide: % Lipid Peroxidation inhibition (at 1 uM) of "CC1(C)c2ccc(C(=O)O)cc2C(C)(C)N1O.Cl" >= 60%?
[A] condition met

[Q] Record "CC1(C)C=CCC(C)(C)N1O.Cl" ; criterion: % Lipid Peroxidation inhibition (at 1 uM) no lower than 60%. Met?
[A] condition met

[Q] Dear colleague, could you confirm whether "CC1(C)CC(Oc2nsnc2N2CCOCC2)CC(C)(C)N1O.Cl" has % Lipid Peroxidation inhibition (at 1 uM) at or above 60%?
[A] condition met

[Q] Can CC1C(O)C(C)C(C)(C)N(O)C1(C)C.Cl (stereo not shown) be said to have % Lipid Peroxidation inhibition (at 1 uM) at or above 60%?
[A] condition met

[Q] Could you please find out whether "CC1(C)CC(=O)CC(C)(C)N1O" has % Lipid Peroxidation inhibition (at 1 uM) that meets 60% or exceeds it?
[A] condition met

[Q] Say whether CC1(C)CC(CO)C(C)(C)N1O.Cl (stereo not shown) shows % Lipid Peroxidation inhibition (at 1 uM) of 60% or more.
[A] condition not met

----------
test system: Human neuroblastoma SKN-SH cells, resistant to doxorubicin; assay: Chemoresistance: cancer cell viability (MTT) in presence or absence of doxorubicin; format: cell-based; conditions: compound 50 ug/mL; Dox. 10^−6 M present (+); MTT
READOUT TYPE: Mean OD (×10^−3), cancer cell viability

COMPOUND: CC(C)c1nsnc1OCC1=CC(C)(C)N(O)C1(C)C
Mean OD (×10^−3), cancer cell viability: 71.00 ×10^−3

For every item in the list below, what is its measured Mean OD (×10^−3), cancer cell viability?
1. CC1(C)CC(c2nn[nH]n2)CC(C)(C)N1O.Cl
2. CC1(C)C(CO)=C(c2ccc(F)cc2)C(C)(C)N1O.Cl
3. CC1(C)CC(Oc2nsnc2N2CCOCC2)C(C)(C)N1O.Cl (centres unmarked)
4. CC1(C)CC(Oc2nsnc2N2CCN(c3ccccc3)CC2)CC(C)(C)N1O.Cl.Cl
5. COc1cc(COC2CC(C)(C)N(O)C(C)(C)C2)cc(OC)c1OC.Cl
6. CC1(C)CC(NC(=O)N2CCOCC2)CC(C)(C)N1O.Cl
7. CC1(C)COC(=O)C(C)(C)N1O.Cl

[A]
310.00 ×10^−3
352.00 ×10^−3
231.50 ×10^−3
170.00 ×10^−3
50.67 ×10^−3
267.25 ×10^−3
311.00 ×10^−3

Return reported Mean OD (×10^−3), cancer cell viability values for all items listed beneath this line.
1. CC1(C)CC(=O)CC(C)(C)N1O
2. CC1(C)CC(Cl)CC(C)(C)N1O.Cl
3. CC1(C)CC(Oc2nsnc2N2CCSCC2)CC(C)(C)N1O.Cl
4. COC1CC(C)(C)N(O)C(C)(C)C1.Cl
5. CC1(C)CC(Oc2nsnc2C#N)CC(C)(C)N1O

[A]
["245.50 ×10^−3", "99.25 ×10^−3", "285.75 ×10^−3", "246.50 ×10^−3", "276.50 ×10^−3"]

Batch request: Mean OD (×10^−3), cancer cell viability per item, same order as input.
1. CC1(C)CC(NC(=O)CCCCC2CCSS2)CC(C)(C)N1O (centres unmarked)
2. CC1(C)COCC(C)(C)N1O.Cl [Compound 20, 3,3,5,5-1-hydroxy-tetramethylmorpholine]
3. CC1(C)C=C(CO)C(C)(C)N1O
4. CC1(C)CC(C(N)=O)C(C)(C)N1O (centres unmarked)
5. CC1(C)CC(O)C(C)(C)N1O (centres unmarked)

[A]
195.00 ×10^−3
107.5 ×10^−3
197.25 ×10^−3
362.00 ×10^−3
241.25 ×10^−3
